# TARGET OF ASSAY: T1, SNAP25 Peptide 1 (PEP1) (Homo sapiens, UniProt P60880 SEQ:1-35)
# T1 chain: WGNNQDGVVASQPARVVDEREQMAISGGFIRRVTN
# EXPERIMENT SUMMARY: ELONA
MEASUREMENT NAME: binding signal (ELISA signal)

• PEP 1.06 (ssDNA, W indole, X amine, Y phenol modified dU [15,20 (Y phenol dU); 19,24,38 (W indole dU); 27 (X amine dU)]) DNA: TTTTTAAGCCCACCTCAGTTCGCTCATCGAACGACGATGCTGTGGGCCCATG = 477
• PEP 1.05 (ssDNA, W indole, X amine, Y phenol modified dU [19,40,43,46]) DNA: TTTTTAAGCCCACCAAGCTGTGGCGGGCACAGGGCAGCATCGTCGTGCCATG = 641
• PEP 1.21 (ssDNA, W indole, X amine, Y phenol modified dU [17,19,24,25]) DNA: TTTTTAAGCCCACCGGTCTGTGGTTCCCACAGTGCATGCGAGTGGGCCCATG = 188
• PEP 1.01 (ssDNA, W indole, X amine, Y phenol modified dU [19,34,35]) DNA: TTTTTAACACGACGCGACTGTGAGAGGCACAGTTTGGGGGCGTGGGCCCATG = 2240
• PEP 1.11 (ssDNA, W indole, X amine, Y phenol modified dU [19,36,38 (W indole dU); 20,34,46 (Y phenol dU); 27,43 (X amine dU)]) DNA: TTTTTAACACGACGCCAGTTCGAAGGTCACAGTTATTTGGCGTCGTGCCATG = 293
• PEP 1.18 (ssDNA, W indole, X amine, Y phenol modified dU [19]) DNA: TTTTTAACACGACCACCCTGTGCAAGGCGAACTCCGTCAAAGTGGGCCCATG = 200
